Recorded values, source patent US9206432B2.

- Test system: lacZ under control of the tetA promoter (PtetA) in E. coli KM3
- Assay type: cell-based
- conditionSummary: Table 6, reverse repressor hits; nicosulfuron, same plate assay format (20 ppm)
measuredAttribute: relative β-galactosidase activity, inducer Ns

molecule	experimentalValue
L1-21: library L1 hit with reverse repressor activity (SEQ ID NO: 1206-1213) (protein, rSuR L1-21) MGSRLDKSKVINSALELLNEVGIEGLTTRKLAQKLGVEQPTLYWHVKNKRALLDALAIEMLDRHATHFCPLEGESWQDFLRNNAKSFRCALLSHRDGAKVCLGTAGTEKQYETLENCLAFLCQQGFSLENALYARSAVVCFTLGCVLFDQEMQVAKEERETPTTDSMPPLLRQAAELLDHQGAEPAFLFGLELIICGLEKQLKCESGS	2.74
L1-36: library L1 hit with reverse repressor activity (SEQ ID NO: 1206-1213) (protein, rSuR L1-36) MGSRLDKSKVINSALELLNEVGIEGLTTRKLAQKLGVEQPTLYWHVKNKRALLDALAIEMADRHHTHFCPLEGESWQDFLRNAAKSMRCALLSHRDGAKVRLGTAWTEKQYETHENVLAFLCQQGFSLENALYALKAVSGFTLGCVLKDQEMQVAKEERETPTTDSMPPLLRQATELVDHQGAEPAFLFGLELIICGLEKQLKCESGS	1.81
L1-33: library L1 hit with reverse repressor activity (SEQ ID NO: 1206-1213) (protein, rSuR L1-33) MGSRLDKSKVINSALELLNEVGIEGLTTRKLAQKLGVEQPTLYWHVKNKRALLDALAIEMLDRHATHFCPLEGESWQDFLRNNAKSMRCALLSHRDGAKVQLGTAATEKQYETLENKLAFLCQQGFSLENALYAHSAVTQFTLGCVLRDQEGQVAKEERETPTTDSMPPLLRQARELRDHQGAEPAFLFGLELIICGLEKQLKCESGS	5.34
L1-39: library L1 hit with reverse repressor activity (SEQ ID NO: 1206-1213) (protein, rSuR L1-39) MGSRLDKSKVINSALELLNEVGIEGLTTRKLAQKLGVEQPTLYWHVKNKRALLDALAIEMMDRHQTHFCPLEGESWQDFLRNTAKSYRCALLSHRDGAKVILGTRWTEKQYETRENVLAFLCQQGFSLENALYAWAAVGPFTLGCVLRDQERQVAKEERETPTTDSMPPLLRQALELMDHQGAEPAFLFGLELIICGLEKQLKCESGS	3.03
